Sourced from PubChem BioAssay AID489040

# System: CHO-XBP1 luciferase reporter, IRE1-XBP1 UPR activation
# Protocol notes: XBP1 luciferase reporter activation – CHO-XBP1 cells, luminescence, counter-screen for apoptotic UPR arm activators, dose response (AID 489040);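 further: reporter read after six hours of compound exposure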
The source made the active and inactive calls.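 How the source made its calls: active means mean half-maximal activating concentration from the dose-response fit at or below a set limit; inactive means the rest.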
Measured quantity: EC50

The following compounds have reported results that may help.
# Compound, EC50
records = [
    ("CCOc1cc(/C=C2/C(=O)ON=C2C)ccc1OCc1ccccc1F", "> 80 µM (inactive)"),
    ("CCc1cccc2c(C(=O)CCl)c[nH]c12", "> 80 µM (inactive)"),
    ("Oc1cc(-c2ccncc2)cc2cccnc12", "> 80 µM (inactive)"),
    ("Cc1ccc(S(=O)(=O)N(C(=O)c2ccncc2)c2ccc(OC(=O)c3ccncc3)c3ccccc23)c(C)c1", "> 80 µM (inactive)"),
    ("COc1ccc2cc(C)c3nnc(SCC(=O)Nc4nc(-c5ccc(F)cc5)cs4)n3c2c1", "inactive"),
    ("C[C@@H](NC(=O)c1coc(=O)c(Br)c1)c1ccccc1", "> 80 µM (inactive)"),
    ("Cc1ccc(-c2nc(NC(=O)c3nn(C)cc3[N+](=O)[O-])sc2C)cc1", "> 80 µM (inactive)"),
    ("CSc1nnc(NC(=O)c2nc(S(=O)(=O)Cc3ccc(C)cc3)ncc2Cl)s1", "> 80 µM (inactive)"),
]

EC50 reading for CC1=CC(C)(C)Nc2ccc(OC(=O)CN3C(=O)C4CCCCC4C3=O)cc21 (stereo not drawn) : > 80 µM (inactive)

Entry under test: O=C(Nc1nc(-c2ccc3ccccc3c2)cs1)c1ccc(N2C(=O)CCC2=O)cc1 . Its EC50 was > 80 µM (inactive)

Form: compound = O=C(Nc1ccc(-c2nc3cc(NC(=O)c4cccs4)ccc3o2)cc1)c1cccs1 ; EC50 = 6.4 µM

For reference, reported EC50 for COc1ccc(NS(=O)(=O)c2ccc3ccccc3c2)c2ncccc12 stands at > 80 µM (inactive)

====

# System: CHO-XBP1 luciferase reporter, IRE1-XBP1 UPR activation
# Protocol notes: XBP1 luciferase reporter activation – CHO-XBP1 cells, luminescence, counter-screen for apoptotic UPR arm activators, dose response (AID 489040);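 further: reporter read after six hours of compound exposure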
Calls of active or inactive are those of the source.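 How the source made its calls: active means mean half-maximal activating concentration from the dose-response fit at or below a set limit; inactive means the rest.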
Form entry, call: pick from active, inactive

# Molecule, System, Cat
records = [
    ("CN1CCN(Cc2cc(COCc3ccccc3)c3cccnc3c2O)CC1", "CHO-XBP1 luciferase reporter, IRE1-XBP1 UPR activation", "inactive"),
    ("COc1ccc(/C=C/c2nc3cc(-c4ccccc4)ccc3o2)cc1O", "CHO-XBP1 luciferase reporter, IRE1-XBP1 UPR activation", "inactive"),
]

Prompt: Hi team, can someone confirm the assay call for O=C(/C=C/c1ccco1)NC(=S)Nc1ccc(O)c(-c2nc3ccccc3s2)c1 ?
Response: active

Prompt: Please share the test call associated with COc1ccc2c(c1OC)C(=O)OC2Nc1nc(-c2ccccc2)cs1 (stereo not drawn) .
Response: inactive

Prompt: Lab log entry: O=Cc1ccc(O)c2ncccc12 — outcome as called in the assay?
Response: inactive

Prompt: Called result for CCc1ccc(NC(=O)C(CC)Sc2nc3cc4c(cc3c(=O)n2Cc2ccco2)OCO4)cc1 (stereo not drawn)
Response: inactive

Prompt: What did the test return for CSc1nnc(NC(=O)c2nc(S(=O)(=O)Cc3ccccc3)ncc2Cl)s1 ?
Response: inactive

Prompt: Status in this test for Cc1cc(N2CCN(c3ccc([N+](=O)[O-])c4cccnc34)CC2)c2ccccc2n1 ?
Response: inactive

Prompt: Per the records of this test, what outcome belongs to COc1ccc(N=Nc2ccc(O)c3ncccc23)cc1 ?
Response: inactive

====

# System: CHO-XBP1 luciferase reporter, IRE1-XBP1 UPR activation
# Protocol notes: XBP1 luciferase reporter activation – CHO-XBP1 cells, luminescence, counter-screen for apoptotic UPR arm activators, dose response (AID 489040);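 further: reporter read after six hours of compound exposure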
Calls of active or inactive are those of the source.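 How the source made its calls: active means mean half-maximal activating concentration from the dose-response fit at or below a set limit; inactive means the rest.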
EC50 values by entry

Before answering, review these 2 worked examples.
# Mol smiles, EC50
measured = [
    ("COCCN1CSC(=S)N(Cc2ccco2)C1", "> 80 µM (inactive)"),
    ("COc1ccc(-c2oc(NC(=O)CCl)c(C#N)c2-c2ccc(OC)cc2)cc1", "> 80 µM (inactive)"),
]

Please examine the following record next.
Short answer for COc1ccc(N=c2oc3c(OC)cccc3cc2C(=O)NCc2ccco2)cc1OC : EC50 was > 80 µM (inactive)

====

# System: CHO-XBP1 luciferase reporter, IRE1-XBP1 UPR activation
# Protocol notes: XBP1 luciferase reporter activation – CHO-XBP1 cells, luminescence, counter-screen for apoptotic UPR arm activators, dose response (AID 489040);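 further: reporter read after six hours of compound exposure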
The source made the active and inactive calls.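 How the source made its calls: active means mean half-maximal activating concentration from the dose-response fit at or below a set limit; inactive means the rest.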
Allowed answers: yes = active, no = inactive

Use the examples below as a reference point.
# Mol smiles, Cat
records = [
    ("CCOC(=O)N1CCN(Cc2cc(Cl)c3cccnc3c2O)CC1", "no"),
    ("Cc1ccc(CS(=O)(=O)c2ncc(Cl)c(C(=O)Nc3ccc(OC(F)F)cc3)n2)cc1", "no"),
    ("O=c1cc(C(Cl)(Cl)Cl)oc2c1ccc1ccccc12", "no"),
    ("CCCCCCCCCCn1c2c(c(=N)c3c1CCC3)CCC2", "yes"),
]

Here is the next item to consider.
Prompt: Called result for Cc1ccccc1/C=C/C(=O)c1ccc([N+](=O)[O-])o1
Response: no

====

# System: CHO-XBP1 luciferase reporter, IRE1-XBP1 UPR activation
# Protocol notes: XBP1 luciferase reporter activation – CHO-XBP1 cells, luminescence, counter-screen for apoptotic UPR arm activators, dose response (AID 489040);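 further: reporter read after six hours of compound exposure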
Activity calls are given as the source filed them.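 Rule for the calls: active = mean half-maximal activating concentration from the dose-response fit at or below a set limit; inactive = the rest.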
Response enum: y (active), n (inactive)

Reference set (8 entries):
# Compound, Cat
data = [
    ("Cc1c(C#N)c(NC(=O)CCl)n(Cc2ccc(F)cc2)c1C", "n"),
    ("O=C(CCl)Nc1cc(S(=O)(=O)N2CCCCCC2)ccc1Cl", "n"),
    ("COc1ccccc1N=Cc1c(O)c2ccccc2oc1=O", "y"),
    ("COCc1cc(C)nc(OCC(=O)N/N=C/c2ccc(-c3cc([N+](=O)[O-])ccc3Cl)o2)c1C#N", "y"),
    ("COc1ccc(N2CCN(Cc3cc(=O)oc4cc(-c5ccccc5)c(O)cc34)CC2)cc1", "n"),
    ("Oc1ccc(CN2CCc3ccccc3C2)c2cccnc12", "n"),
    ("CC(C)CNC(=O)c1coc(=O)c(Br)c1", "n"),
    ("Oc1ccc(/C=N/Nc2ccc(C(F)(F)F)cn2)cc1O", "n"),
]

Prompt: Tell me the recorded outcome of this test for Cc1cccc(CSc2cccc3cccnc23)c1 .
Response: n

Prompt: Which outcome did this test record for the compound COc1cc([C@H]2c3[nH]c4ccccc4c3C[C@H]3C(=O)N4[C@@H](c5cc(OC)c(OC)c(OC)c5)c5[nH]c6ccccc6c5C[C@H]4C(=O)N23)cc(OC)c1OC ?
Response: y

Prompt: Test call, this compound: OCCNc1nc(Nc2ccc(Cl)c(Cl)c2)nc2ccccc12
Response: n

Prompt: Lab log entry: COc1ccc(/C=C/C(=O)Oc2ccc(C)cc2)cc1 — outcome as called in the assay?
Response: n

Prompt: So what was the verdict on O=C(NC1CCCC1)C(c1ccc(Cl)cc1)N(Cc1ccc(F)cc1)C(=O)CCl (stereo unspecified) in this test?
Response: n

Prompt: Can you look up the reported call for O=C(CSc1ccc2ccccc2c1)NCCc1ccc(O)c(O)c1 for me?
Response: n

Prompt: Tell me the recorded outcome of this test for COc1ccc(OC)c(N=Cc2c(O)c3ccccc3oc2=O)c1 .
Response: y

Prompt: Status in this test for CCN(CC)S(=O)(=O)c1cc(NC(=O)Cn2ncc(Cl)c(Cl)c2=O)ccc1C ?
Response: n

====

# System: CHO-XBP1 luciferase reporter, IRE1-XBP1 UPR activation
# Protocol notes: XBP1 luciferase reporter activation – CHO-XBP1 cells, luminescence, counter-screen for apoptotic UPR arm activators, dose response (AID 489040);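 further: reporter read after six hours of compound exposure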
Active and inactive are the calls of the source.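 How the source made its calls: active means mean half-maximal activating concentration from the dose-response fit at or below a set limit; inactive means the rest.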
Recorded EC50 by entry

Take a look at these entries with their results.
# Compound, Readout value
rows = [
    ("CCCCNC1C(CC)C(CCC)C(C#N)(C#N)C1(C#N)C#N (centres undefined)", "> 80 µM (inactive)"),
    ("COc1cc(NS(=O)(=O)c2ccc3ccccc3c2)c2ncccc2c1", "15.5 µM"),
    ("CCCN1Cc2cccc(C(=O)Nc3ccc(-c4nc5ccccc5[nH]4)cc3)c2C1=O", "> 80 µM (inactive)"),
]

Documented EC50 of COc1cc(SC#N)ccc1N=Cc1c(C)[nH]n(-c2ccc(C)c(C)c2)c1=O : > 80 µM (inactive)

====

# System: CHO-XBP1 luciferase reporter, IRE1-XBP1 UPR activation
# Protocol notes: XBP1 luciferase reporter activation – CHO-XBP1 cells, luminescence, counter-screen for apoptotic UPR arm activators, dose response (AID 489040);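 further: reporter read after six hours of compound exposure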
Activity calls are given as the source filed them.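 The calls were made as follows: active = mean half-maximal activating concentration from the dose-response fit at or below a set limit; inactive = the rest.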
Tick one outcome: 1.0 = active, 0.0 = inactive

# Mol smiles, System, Cat
records = [
    ("O=C(NC(=S)Nc1ccc(NC(=O)c2cccs2)cc1)c1cc2ccccc2o1", "CHO-XBP1 luciferase reporter, IRE1-XBP1 UPR activation", 0.0),
]

Prompt: Hi team, can someone confirm the assay call for O=C(N/N=C/c1ccccn1)c1cc(-c2ccc(Br)cc2)nc2ccccc12 ?
Response: 0.0

Prompt: Lab log entry: Clc1ccc(-c2ccc(/C=N/Nc3nncc(-c4ccccc4)n3)o2)cc1 — outcome as called in the assay?
Response: 0.0
